target: D2R (hD2R) (Homo sapiens); construct: gene DRD2; human cloned receptor stably expressed in HEK293 cells; membranes; assay: [3H]N-methylspiperone competition, membranes; type: binding; details: read-out: pKi / D2R (converted)
Sequence (P14416 whole entry): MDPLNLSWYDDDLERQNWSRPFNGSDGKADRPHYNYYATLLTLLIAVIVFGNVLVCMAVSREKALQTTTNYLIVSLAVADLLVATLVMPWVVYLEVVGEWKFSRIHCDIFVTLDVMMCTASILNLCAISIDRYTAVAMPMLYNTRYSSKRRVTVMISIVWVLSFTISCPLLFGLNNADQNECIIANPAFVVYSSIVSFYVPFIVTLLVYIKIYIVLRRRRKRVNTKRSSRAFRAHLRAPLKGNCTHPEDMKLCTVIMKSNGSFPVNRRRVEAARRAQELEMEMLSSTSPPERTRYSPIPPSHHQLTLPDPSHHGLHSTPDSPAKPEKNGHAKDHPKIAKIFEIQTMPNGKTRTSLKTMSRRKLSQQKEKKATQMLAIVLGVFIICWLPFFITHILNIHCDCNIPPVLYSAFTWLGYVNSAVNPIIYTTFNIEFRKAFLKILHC
readout: Ki (µM)

Completed entries (count: 3):
CCCCC1CCN(CCCCCN2C(=O)CCc3ccccc32)CC1	0.302
O=C1CCc2ccccc2N1CCCN1CC=C(c2ccccc2)CC1	0.575
O=C1CCc2ccccc2N1CCN1CCC(Cc2ccccc2)CC1	0.661

1. CCCCC1CCN(CCN2C(=O)CCc3ccccc32)CC1
2. O=C1CCc2ccccc2N1CCCCCN1CCC(Cc2ccccc2)CC1
3. O=C1CCc2ccccc2N1CCCC1CCN(Cc2ccccc2)CC1
Put the molecules in ascending order of Ki. In your reply, arrange the labels in the requested order. 2, 3, 1
(2: 0.813 µM, 3: 3.63 µM, 1: 8.91 µM)

A. O=C1CCc2ccccc2N1CC1CCN(Cc2ccccc2)CC1
B. CCCCC1CCN(CCCCN2C(=O)CCc3ccccc32)CC1
// which entry has the larger Ki value, A or B ? Give the label under which the chosen entry appears. A

I. CCCCN1CCC(CCCN2C(=O)CCc3ccccc32)CC1
II. O=C1CCc2ccccc2N1CCCN1CCc2ccccc2C1
III. O=C1CCc2ccccc2N1CCCCN1CCC(Cc2ccccc2)CC1
Put the molecules in ascending order of Ki. In your reply, arrange the labels in the requested order. II, III, I
(II: 0.447 µM, III: 1.07 µM, I: 10.2 µM)

Values from paper PMC12114630
